tested-system: FZD8 (Homo sapiens, UniProt Q9H461)
Construct: purchased Promega (in-house HiBiT-GPCR construct library, NanoBRET)
Sequence (Q9H461 28-694): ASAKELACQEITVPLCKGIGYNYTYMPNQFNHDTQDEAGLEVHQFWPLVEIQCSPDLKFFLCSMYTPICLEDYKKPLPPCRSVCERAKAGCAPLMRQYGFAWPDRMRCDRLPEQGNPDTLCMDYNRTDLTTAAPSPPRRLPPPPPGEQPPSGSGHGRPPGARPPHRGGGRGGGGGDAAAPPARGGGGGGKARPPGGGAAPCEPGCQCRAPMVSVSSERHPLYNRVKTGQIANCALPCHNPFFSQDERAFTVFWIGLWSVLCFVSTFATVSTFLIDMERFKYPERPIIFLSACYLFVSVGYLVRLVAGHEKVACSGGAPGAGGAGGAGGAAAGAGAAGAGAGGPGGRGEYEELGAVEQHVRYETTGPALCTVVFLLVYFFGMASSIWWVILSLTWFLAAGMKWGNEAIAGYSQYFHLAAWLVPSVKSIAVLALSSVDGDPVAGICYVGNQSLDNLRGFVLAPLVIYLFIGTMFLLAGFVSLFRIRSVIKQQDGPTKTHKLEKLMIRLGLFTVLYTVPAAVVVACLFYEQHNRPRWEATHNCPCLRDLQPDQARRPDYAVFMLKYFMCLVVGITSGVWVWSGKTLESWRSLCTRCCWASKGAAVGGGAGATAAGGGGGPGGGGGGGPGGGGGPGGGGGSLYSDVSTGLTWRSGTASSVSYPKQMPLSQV
method-description: NanoBRET screen HiBiT-FZD8 in HEK293
Type: binding
condition: FZD8; tracer 1μM

{"columns": ["molecule", "NanoBRET Fold Response"],
 "data": [
  ["O=C(CCc1ccc2n1[B-](F)(F)[N+]1=C(c3ccc[nH]3)C=CC1=C2)NCCOCCOCCNC(=O)OCCOCCN1CCN(C2=Nc3ccccc3Sc3ccccc32)CC1 [Quetiapine-a-2-NB590]", 1.08],
  ["CC(C)N(CC[C@H](c1ccccc1)c1cc(CCNC(=O)c2ccc(CNC(=O)CCc3ccc4n3[B-](F)(F)[N+]3=C(c5ccc[nH]5)C=CC3=C4)cc2)ccc1O)C(C)C [Tolterodine-BZ-NB590]", 1.02],
  ["Cc1nc2n(c(=O)c1CCN1CCC(c3noc4cc(F)ccc34)CC1)CCCC2OC(=O)NCCOCCOCCOCCOCCNC(=O)CCc1ccc2n1[B-](F)(F)[N+]1=C(c3ccc[nH]3)C=CC1=C2 (stereo not drawn) [Risperidone-2-NB590]", 1.12],
  ["COc1ccccc1N1CCN(CCCCN2C(=O)c3ccc(CNC(=O)CCOCCOCCOCCOCCNC(=O)CCc4ccc5n4[B-](F)(F)[N+]4=C(c6ccc[nH]6)C=CC4=C5)cc3C2=O)CC1 [NAN-190-2-NB590]", 1.03],
  ["CCCn1c(=O)c2[nH]c(-c3ccc(OCC(=O)NCCNC(=O)CCOCCNC(=O)c4ccc(CNC(=O)CCc5ccc6n5[B-](F)(F)[N+]5=C(c7ccc[nH]7)C=CC5=C6)cc4)cc3)nc2n(CCC)c1=O [XAC-3-NB590]", 1.02],
  ["CC(C)N(CC[C@H](c1ccccc1)c1cc(CCNC(=O)CCOCCOCCOCCOCCNC(=O)CCc2ccc3n2[B-](F)(F)[N+]2=C(c4ccc[nH]4)C=CC2=C3)ccc1O)C(C)C [Tolterodine-2-NB590]", 1.12]
]}

###

tested-system: NPFFR2 (Homo sapiens)
Construct: purchased Promega (in-house HiBiT-GPCR construct library, NanoBRET)
Sequence (Q9Y5X5 whole entry): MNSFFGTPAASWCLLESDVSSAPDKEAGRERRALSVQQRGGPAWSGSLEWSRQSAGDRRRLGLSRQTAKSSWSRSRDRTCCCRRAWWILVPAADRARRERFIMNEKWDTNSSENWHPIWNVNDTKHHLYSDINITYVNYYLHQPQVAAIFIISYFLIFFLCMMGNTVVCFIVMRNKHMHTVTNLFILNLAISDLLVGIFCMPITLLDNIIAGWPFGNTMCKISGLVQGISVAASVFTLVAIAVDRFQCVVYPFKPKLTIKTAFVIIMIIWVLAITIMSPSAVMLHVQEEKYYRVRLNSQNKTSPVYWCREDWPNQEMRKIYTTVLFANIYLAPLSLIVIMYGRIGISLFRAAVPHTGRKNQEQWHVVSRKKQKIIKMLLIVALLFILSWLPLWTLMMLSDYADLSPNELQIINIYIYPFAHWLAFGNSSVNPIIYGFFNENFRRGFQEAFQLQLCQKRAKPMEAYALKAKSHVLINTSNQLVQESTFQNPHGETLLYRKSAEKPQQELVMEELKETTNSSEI
method-description: NanoBRET screen HiBiT-NPFFR2 in HEK293
Assay type: binding
condition: NPFFR2; tracer 0.1μM
Method: Each tracer candidate was screened across the entire library of HiBiT-GPCR constructs using NanoBRET as the detection modality. As depicted in Figure 4A, the specificity of interactions was evaluated through decrease in BRET due to competitive displacement of a bound tracer by excess parental compound. Each tracer was analyzed for binding to each HiBiT-GPCR fusion in the absence and in the presence of competing parental compound. […]
NanoBRET Fold Response below 1 gives FALSE; NanoBRET Fold Response at or above it gives TRUE.

{"columns": ["smiles-structure", "category"],
 "data": [
  ["COc1ccccc1N1CCN(CCCCN2C(=O)c3ccc(CNC(=O)CCOCCOCCOCCOCCNC(=O)CCc4ccc5n4[B-](F)(F)[N+]4=C(c6ccc[nH]6)C=CC4=C5)cc3C2=O)CC1", "FALSE"],
  ["O=C(CCOCCOCCOCCOCCNC(=O)CCc1ccc2n1[B-](F)(F)[N+]1=C(c3ccc[nH]3)C=CC1=C2)NCCCN1CCN(C2=Nc3ccccc3Oc3ccc(Cl)cc32)CC1", "TRUE"]
]}
